# assayed-system: serotonin transporter (SERT) (Homo sapiens)
# Construct: expressed in transfected cells; host or cells: CHO cells
# procedure-summary: Radioligand binding assay, serotonin transporter (SERT)
# settings: binding assay, test compound 1×10^−6 M
// label = condition met if inhibition at 1 µM is not less than 20%, otherwise condition not met

Reference set, count: 5
Cc1ccc(S(=O)(=O)NC2CCN(CCCc3noc4cc(F)ccc34)C2)cc1 (centres unmarked)	condition not met
O=S(=O)(NC1CCN(CCCc2noc3cc(F)ccc23)CC1)c1csc2ccccc12	condition met
O=S(=O)(NCC1CN(CCOc2cccc3ccccc23)C1)c1csc2ccccc12	condition met
O=S(=O)(NC1CCN(CCCc2noc3cc(F)ccc23)C1)c1csc2ccccc12 (centres unmarked)	condition met
O=S(=O)(NCC1CCN(CCOc2cccc3c2OCCO3)C1)c1ccc(F)c(Cl)c1 (centres unmarked)	condition met

Query :: Is reported inhibition at 1 µM greater than or equal to 20% here: O=S(=O)(NCC1CCN(CCCc2noc3cc(F)ccc23)C1)c1ccc(Cl)c(Cl)c1 (centres unmarked)
Result :: condition not met

Query :: Now the same for O=S(=O)(NCC1CCN(CCOc2cccc3c2OCCO3)C1)c1ccc(Cl)s1 (centres unmarked)
Result :: condition not met

----------
Quick reference for inhibition at 1 µM among some compounds
# assayed-system: 5-HT2A receptor (Homo sapiens)
# Construct: purchased PerkinElmer
# procedure-summary: Radioligand binding assay, serotoninergic 5-HT2A receptors
# settings: binding assay result in %, Table 5a
Give the value, in units of %, as a plain number.

O=S(=O)(N[C@@H]1CCN(CCCc2noc3cc(F)ccc23)C1)c1ccc2ccccc2c1	100

Switching to the query record.
Query :: Name the recorded inhibition at 1 µM for O=S(=O)(NCC1CN(CCOc2cccc3ccccc23)C1)c1ccc(F)c(Cl)c1 .
Result :: 71

----------
Quick reference for inhibition at 1 µM among some compounds
# assayed-system: 5-HT1A receptor (rat hippocampus) (Rattus norvegicus)
# Construct: hippocampus; from tissue; host or cells: rat hippocampus
# Sequence (P19327 whole entry): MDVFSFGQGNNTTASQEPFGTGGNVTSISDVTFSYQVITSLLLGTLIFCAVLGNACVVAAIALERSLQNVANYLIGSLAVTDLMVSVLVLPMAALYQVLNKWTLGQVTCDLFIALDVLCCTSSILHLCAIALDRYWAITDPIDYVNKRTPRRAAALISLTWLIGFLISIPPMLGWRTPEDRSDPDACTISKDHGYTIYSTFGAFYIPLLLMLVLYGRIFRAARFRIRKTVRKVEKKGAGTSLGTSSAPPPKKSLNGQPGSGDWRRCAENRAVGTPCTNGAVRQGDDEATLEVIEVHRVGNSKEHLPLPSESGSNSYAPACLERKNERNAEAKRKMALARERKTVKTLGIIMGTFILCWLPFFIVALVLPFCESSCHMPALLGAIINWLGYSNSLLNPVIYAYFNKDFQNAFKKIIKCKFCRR
# procedure-summary: Radioligand binding assay, serotoninergic 5-HT1A receptors;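 note: test compound at 1 µM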
# settings: binding assay result in %, Table 5a
Give the value, in units of %, as a plain number.

O=S(=O)(NCC1CCN(CCOc2cccc3ccccc23)C1)c1csc2ccccc12 (stereo not shown)	81
Cc1c(S(=O)(=O)NCC2CN(CCCc3noc4cc(F)ccc34)C2)sc2ccc(F)cc12	85

Query :: Name the recorded inhibition at 1 µM for O=S(=O)(NCC1CCN(CCCc2noc3cc(F)ccc23)C1)c1ccc2ccccc2c1 (stereo not shown) .
Result :: 30

Query :: Now the same for O=S(=O)(NC1CN(CCOc2cccc3[nH]ccc23)C1)c1ccccc1
Result :: 88

----------
# assayed-system: 5-HT7 receptor (Homo sapiens, UniProt P34969)
# Construct: purchased PerkinElmer
# Sequence (P34969 whole entry): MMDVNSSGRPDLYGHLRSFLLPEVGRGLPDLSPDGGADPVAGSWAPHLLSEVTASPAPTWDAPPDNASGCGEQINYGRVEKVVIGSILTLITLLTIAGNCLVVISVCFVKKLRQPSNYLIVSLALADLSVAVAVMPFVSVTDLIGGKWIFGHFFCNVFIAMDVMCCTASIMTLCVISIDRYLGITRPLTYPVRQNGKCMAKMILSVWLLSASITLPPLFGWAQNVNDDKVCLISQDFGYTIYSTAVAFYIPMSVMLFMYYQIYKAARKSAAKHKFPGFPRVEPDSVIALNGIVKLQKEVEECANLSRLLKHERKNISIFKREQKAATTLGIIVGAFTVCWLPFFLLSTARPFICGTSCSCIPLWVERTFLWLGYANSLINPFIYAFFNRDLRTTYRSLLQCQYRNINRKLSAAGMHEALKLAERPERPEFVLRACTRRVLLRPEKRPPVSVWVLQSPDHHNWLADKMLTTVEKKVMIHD
# procedure-summary: Radioligand binding assay, serotoninergic 5-HT7 receptors;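 note: test compound at 1 µM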
# settings: binding assay result in %, Table 5a
reported-metric: inhibition at 1 µM
Dear colleague, please send the value followed by its unit.

Worked set:
O=S(=O)(NC1CCN(CCCc2noc3cc(F)ccc23)C1)c1ccc(Cl)s1 (centres unmarked) [Compound 22]	85%
O=S(=O)(NC1CCN(CCCc2noc3cc(F)ccc23)C1)c1cccc(C(F)(F)F)c1 (centres unmarked) [Compound 15]	48%
O=S(=O)(NCC1CCN(CCOc2cccc3c2OCCO3)C1)c1ccc(Cl)c(Cl)c1 (centres unmarked) [Compound 301]	98%
COc1ccc2cc(S(=O)(=O)N[C@@H]3CCN(CCCc4noc5cc(F)ccc45)C3)ccc2c1 [Compound 230]	87%
O=S(=O)(NCC1CN(CCOc2cccc3c2OCCO3)C1)c1cc2ccccc2o1 [Compound 186]	97%
O=S(=O)(N[C@H]1CCN(CCCc2noc3cc(F)ccc23)C1)c1csc2ccccc12 [Compound 225]	100%

Query :: Name the recorded inhibition at 1 µM for Cc1cc(S(=O)(=O)NCC2CCN(CCCc3noc4cc(F)ccc34)C2)c(C)s1 (centres unmarked) [Compound 262] .
Result :: 92%

Query :: Now the same for O=S(=O)(NC1CCN(CCCc2noc3cc(F)ccc23)C1)c1ccc2ccccc2c1 (centres unmarked) [Compound 21]
Result :: 100%

----------
# assayed-system: D2 dopaminergic receptors (Homo sapiens, UniProt P14416)
# Sequence (P14416 whole entry): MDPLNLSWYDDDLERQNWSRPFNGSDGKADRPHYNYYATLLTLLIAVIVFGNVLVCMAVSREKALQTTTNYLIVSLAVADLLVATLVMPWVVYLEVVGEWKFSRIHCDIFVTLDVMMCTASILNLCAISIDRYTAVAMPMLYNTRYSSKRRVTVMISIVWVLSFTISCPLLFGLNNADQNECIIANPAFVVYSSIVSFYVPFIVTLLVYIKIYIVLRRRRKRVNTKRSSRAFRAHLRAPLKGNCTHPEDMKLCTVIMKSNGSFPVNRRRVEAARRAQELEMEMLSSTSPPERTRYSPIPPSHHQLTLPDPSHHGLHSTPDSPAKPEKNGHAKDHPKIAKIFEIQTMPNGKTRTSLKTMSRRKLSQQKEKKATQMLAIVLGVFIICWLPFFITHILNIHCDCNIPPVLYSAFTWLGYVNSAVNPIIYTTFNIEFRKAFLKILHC
# procedure-summary: Cellular functional assay, D2 dopaminergic receptors
# Assay type: cell-based
# settings: antagonism, D2S (h), HEK-293 cells, stimulus dopamine (30 nM)
// label = True if D2 antag [%] is not less than 90%, otherwise False

Reference set, count: 6
Cc1ccc2sc(S(=O)(=O)N[C@@H]3CCN(CCCc4noc5cc(F)ccc45)C3)cc2c1	True
O=S(=O)(N[C@@H]1CCN(CCCc2noc3cc(F)ccc23)C1)c1cc2ccc(Cl)cc2s1	False
Cc1c(S(=O)(=O)N[C@@H]2CCN(CCCc3noc4cc(F)ccc34)C2)sc2ccc(Cl)cc12	False
O=S(=O)(NC1CN(CCOc2cccc3[nH]ccc23)C1)c1cccc2ccccc12	True
O=S(=O)(NCC1CCN(CCOc2cccc3ccccc23)C1)c1ccc2ccccc2c1 (centres unmarked)	False
O=S(=O)(N[C@@H]1CCN(CCCc2noc3cc(F)ccc23)C1)c1ccc2ccccc2c1	True

Query :: Is reported D2 antag [%] greater than or equal to 90% here: O=S(=O)(N[C@H]1CCN(CCCc2noc3cc(F)ccc23)C1)c1cc2ccc(Cl)cc2s1
Result :: False

----------
# assayed-system: 5-HT reuptake (rat brain synaptosomes) (Rattus norvegicus)
# Construct: measuring [^3H]5-HT incorporation into rat brain synaptosomes
# Sequence (P31652 whole entry): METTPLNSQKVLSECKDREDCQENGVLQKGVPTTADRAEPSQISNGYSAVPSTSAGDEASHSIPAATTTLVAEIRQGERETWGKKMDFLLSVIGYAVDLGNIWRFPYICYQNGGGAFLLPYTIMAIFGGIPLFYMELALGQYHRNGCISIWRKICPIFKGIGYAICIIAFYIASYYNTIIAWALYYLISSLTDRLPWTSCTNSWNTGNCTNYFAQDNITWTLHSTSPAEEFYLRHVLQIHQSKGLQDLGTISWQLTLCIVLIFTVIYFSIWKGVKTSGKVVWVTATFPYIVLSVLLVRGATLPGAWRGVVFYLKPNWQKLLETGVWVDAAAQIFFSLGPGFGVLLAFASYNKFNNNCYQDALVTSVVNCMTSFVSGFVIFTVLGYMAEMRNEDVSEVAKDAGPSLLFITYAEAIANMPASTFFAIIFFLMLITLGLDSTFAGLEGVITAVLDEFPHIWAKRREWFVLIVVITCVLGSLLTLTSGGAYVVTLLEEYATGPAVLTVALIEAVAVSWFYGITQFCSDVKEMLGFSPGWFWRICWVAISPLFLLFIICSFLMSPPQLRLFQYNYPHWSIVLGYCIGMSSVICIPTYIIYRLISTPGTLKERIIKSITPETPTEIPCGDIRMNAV
# procedure-summary: 5-HT reuptake, [3H]5-HT incorporation into rat brain synaptosomes
# settings: 15 min/37° C., read-out: SERT IC50
Quick reference for IC50 among some compounds
Give the value, in units of µM, as a plain number.

O=S(=O)(NC1CCN(CCCc2c[nH]c3ccc(F)cc23)C1)c1ccc2ccccc2c1 (stereo not drawn)	0.0021

Query :: Provide the documented IC50 with 5-HT reuptake (rat brain synaptosomes) (Rattus norvegicus) as the system for Cc1cccc(S(=O)(=O)NC2CCN(CCCc3c[nH]c4ccc(Cl)cc34)C2)c1 (stereo not drawn)
Result :: 0.017

Query :: Now the same for O=S(=O)(NC1CCN(CCCc2c[nH]c3ccc(Cl)cc23)C1)c1cccc(Cl)c1 (stereo not drawn)
Result :: 0.064

----------
# assayed-system: 5-HT2A receptor (Homo sapiens)
# Construct: purchased PerkinElmer
# procedure-summary: Radioligand binding assay, serotoninergic 5-HT2A receptors
# settings: binding assay result in %, Table 5a
Quick reference for inhibition at 1 µM among some compounds
Give the value, in units of %, as a plain number.

Worked set:
Cn1ccc2cc(S(=O)(=O)NC3CCN(CCCc4noc5cc(F)ccc45)C3)ccc21 (stereo not drawn)	100
Cn1ccc2cc(S(=O)(=O)NCC3CCN(CCOc4cccc5c4OCCO5)C3)ccc21 (stereo not drawn)	91
O=S(=O)(NCC1CN(CCCc2noc3cc(F)ccc23)C1)c1ccc(Cl)s1	89
O=S(=O)(NC1CCN(CCCc2noc3cc(F)ccc23)C1)c1cccc2ccccc12 (stereo not drawn)	100
O=S(=O)(NCC1CN(CCOc2cccc3c2OCCO3)C1)c1ccc(Cl)s1	86

Query :: Name the recorded inhibition at 1 µM for O=S(=O)(NC1CCN(CCCc2noc3cc(F)ccc23)C1)c1ccc(Cl)s1 (stereo not drawn) .
Result :: 95

Query :: Now the same for O=S(=O)(NC1CCN(CCCc2noc3cc(F)ccc23)C1)c1ccc(Br)cc1 (stereo not drawn)
Result :: 96

Query :: Now the same for O=S(=O)(NCC1CN(CCOc2cccc3ccccc23)C1)c1cccc2ccccc12
Result :: 96

Query :: Now the same for O=S(=O)(NCC1CN(CCCc2noc3cc(F)ccc23)C1)c1ccc(Cl)cc1
Result :: 82

Query :: Now the same for O=S(=O)(NC1CCN(CCCc2noc3cc(F)ccc23)CC1)c1ccc2cc(Cl)ccc2c1
Result :: 92

Query :: Now the same for O=S(=O)(NC1CCN(CCCc2noc3cc(F)ccc23)CC1)c1cccc2ccccc12
Result :: 98

Query :: Now the same for O=S(=O)(NCC1CN(CCOc2cccc3c2OCCO3)C1)c1ccc2ccccc2c1
Result :: 66

Query :: Now the same for O=S(=O)(NCC1CCN(CCOc2cccc3ccccc23)C1)c1csc2ccccc12 (stereo not drawn)
Result :: 92

----------
# Test system: α1 adrenergic receptors (rat cerebral cortex)
# procedure-summary: Radioligand binding assay, adrenergic α1 receptors
# settings: test compound 1×10^−6 M
reported-metric: α1 [%]

Cc1cccc(S(=O)(=O)NC2CCN(CCOc3cccc4[nH]ccc34)CC2)c1	74%

Query :: Name the recorded α1 [%] for O=S(=O)(NC1CN(CCOc2cccc3c2OCCO3)C1)c1ccc(Cl)cc1 .
Result :: 47%

Query :: Now the same for O=S(=O)(N[C@H]1CCN(CCCc2noc3cc(F)ccc23)C1)c1ccc2ccccc2c1
Result :: 95%

Query :: Now the same for O=S(=O)(NC1CCN(CCCc2noc3cc(F)ccc23)C1)c1ccc(Cl)s1 (stereo not shown)
Result :: 91%

----------
# assayed-system: serotonin transporter (SERT) (Homo sapiens, UniProt P31645)
# Construct: expressed in transfected cells; host or cells: CHO cells
# Sequence (P31645 whole entry): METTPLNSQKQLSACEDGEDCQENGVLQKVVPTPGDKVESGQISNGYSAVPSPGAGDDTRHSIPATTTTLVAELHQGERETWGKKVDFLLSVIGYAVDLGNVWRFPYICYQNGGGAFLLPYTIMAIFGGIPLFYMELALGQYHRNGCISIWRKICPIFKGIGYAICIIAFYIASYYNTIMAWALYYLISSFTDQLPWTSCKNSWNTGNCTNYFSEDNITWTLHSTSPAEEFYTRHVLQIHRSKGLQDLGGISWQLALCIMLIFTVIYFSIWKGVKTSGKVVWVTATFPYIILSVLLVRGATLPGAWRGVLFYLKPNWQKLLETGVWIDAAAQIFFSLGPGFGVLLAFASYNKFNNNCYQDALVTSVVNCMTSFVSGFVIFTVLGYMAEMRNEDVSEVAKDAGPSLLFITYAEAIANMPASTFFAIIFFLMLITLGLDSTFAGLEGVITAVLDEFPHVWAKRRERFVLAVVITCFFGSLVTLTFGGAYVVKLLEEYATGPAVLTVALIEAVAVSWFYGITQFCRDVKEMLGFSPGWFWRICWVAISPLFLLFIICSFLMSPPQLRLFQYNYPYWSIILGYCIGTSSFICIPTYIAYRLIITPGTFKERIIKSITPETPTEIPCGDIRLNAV
# procedure-summary: Radioligand binding assay, serotonin transporter (SERT)
# settings: binding assay, test compound 1×10^−6 M
reported-metric: inhibition at 1 µM (%)
Give the value, in units of %, as a plain number.

Worked set:
O=S(=O)(NC1CCN(CCCc2noc3cc(F)ccc23)C1)c1ccc2cc(Cl)ccc2c1 (stereo not drawn)	53
COc1ccc2cc(S(=O)(=O)N[C@@H]3CCN(CCCc4noc5cc(F)ccc45)C3)ccc2c1	75
O=S(=O)(NCC1CN(CCOc2cccc3ccccc23)C1)c1ccc2ccccc2c1	98

Query :: Name the recorded inhibition at 1 µM for Cn1ccc2c(S(=O)(=O)NCC3CN(CCOc4cccc5c4OCCO5)C3)cccc21 .
Result :: 44

Query :: Now the same for O=S(=O)(NC1CCN(CCCc2noc3cc(F)ccc23)CC1)c1cc2ccccc2s1
Result :: 18

Query :: Now the same for Cc1c(S(=O)(=O)NCC2CCN(CCCc3noc4cc(F)ccc34)C2)sc2ccc(Cl)cc12 (stereo not drawn)
Result :: 64

Query :: Now the same for O=S(=O)(NCC1CCN(CCOc2cccc3ccccc23)C1)c1cccc(O)c1 (stereo not drawn)
Result :: 83

Query :: Now the same for Cc1ccc2sc(S(=O)(=O)N[C@H]3CCN(CCCc4noc5cc(F)ccc45)C3)cc2c1
Result :: 50

Query :: Now the same for Cc1cc(S(=O)(=O)N[C@@H]2CCN(CCCc3noc4cc(F)ccc34)C2)c(C)s1
Result :: 2

Query :: Now the same for Cn1ccc2c(S(=O)(=O)NC3CCN(CCCc4noc5cc(F)ccc45)C3)cccc21 (stereo not drawn)
Result :: 52

Query :: Now the same for O=S(=O)(NCC1CCN(CCCc2noc3cc(F)ccc23)C1)c1ccc2c(c1)CCO2 (stereo not drawn)
Result :: 40
